measured.on: Recombinant human cathepsin S (CatS) (Homo sapiens, UniProt P25774)
Construct: made in house
Sequence (P25774 115-331): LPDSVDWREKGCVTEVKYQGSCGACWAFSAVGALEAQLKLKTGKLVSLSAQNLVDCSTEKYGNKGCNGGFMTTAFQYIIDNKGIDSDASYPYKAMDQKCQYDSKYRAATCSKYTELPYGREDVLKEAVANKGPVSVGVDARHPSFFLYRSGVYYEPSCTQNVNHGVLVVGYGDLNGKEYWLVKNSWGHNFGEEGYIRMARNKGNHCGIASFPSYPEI
method: Recombinant human cathepsin S (CatS) fluorogenic substrate inhibition assay
Type: biochemical
condition.summary: average of results obtained; substrate Z-Valine-Valine-Arginine-AMC 10 μM, pH 5.0; read-out: CatS IC50
Description: Recombinant human cathepsin S (CatS) was expressed in the baculovirus system and purified in one step with a thiopropyl-sepharose column. […] The assay is run in 150 mM sodium acetate pH 5.0 containing 1.5 mM DTT and 150 mM NaCl. […] Measurements are taken every min for 20 min. The rate is calculated from the slope of the increase in fluorescence and the percent inhibition is calculated from this.
pIC50: −log10 of the molar value.
outcome.measure: pIC50

>>> meas_value("CC(=O)Nc1cccc(C(=O)NCc2cc(-c3nn(CC(O)CN4CCCC4)c4c3CN(S(C)(=O)=O)CC4)ccc2C(F)(F)F)c1 (stereo not drawn) [Example 59]")
6.30
>>> meas_value("CS(=O)(=O)N1CCc2c(c(-c3ccc(C(F)(F)F)c(CNC(=O)c4cccc(F)c4)c3)nn2CC(O)CN2CCCC2)C1 (stereo not drawn) [Example 215]")
6.24
>>> meas_value("CC(C)CC(=O)NCc1cc(-c2nn(CC(O)CN3CCC(NC(=O)C(F)(F)F)C3)c3c2CN(S(C)(=O)=O)CC3)ccc1C(F)(F)F (stereo not drawn) [Example 280]")
6.44
>>> meas_value("CS(=O)(=O)N1CCc2c(c(-c3ccc(C(F)(F)F)c(CNC(=O)C4CCCCC4)c3)nn2CC(O)CN2CCCC2)C1 (stereo not drawn) [Example 168]")
6.30

P = CS(=O)(=O)N1CCc2c(c(-c3ccc(C(F)(F)F)c(CNC(=O)c4ccc([N+](=O)[O-])cc4)c3)nn2CC(O)CN2CCCC2)C1 (stereo not drawn) [Example 212]
Q = CS(=O)(=O)N1CCc2c(c(-c3ccc(C(F)(F)F)c(CNC(=O)c4ccc(F)cc4)c3)nn2CC(O)CN2CCC(O)C2)C1 (stereo not drawn) [Example 27]
Hi! Which is lower in terms of pIC50, the first one P or the second one Q ? // caller expects the label of the chosen entry
P
(P: 6.28, Q: 6.64)

* * *

measured.on: Recombinant human cathepsin S (CatS) (Homo sapiens, UniProt P25774)
Construct: made in house
method: Recombinant human cathepsin S (CatS) fluorogenic substrate inhibition assay
Format: biochemical
condition.summary: average of results obtained; substrate Z-Valine-Valine-Arginine-AMC 10 μM, pH 5.0; read-out: CatS IC50
outcome.measure: IC50 (nM)

// known answers, use as guide
>>> meas_value("Cc1cc(C(=O)NCc2cc(-c3nn(CC(O)CN4CCCC4)c4c3CN(S(C)(=O)=O)CC4)ccc2C(F)(F)F)ccc1F (centres unmarked)")
240
>>> meas_value("CS(=O)(=O)N1CCc2c(c(-c3ccc(C(F)(F)F)c(CNC(=O)c4ccc(F)cc4)c3)nn2CC(O)CN2CCN(CCO)CC2)C1 (centres unmarked)")
280
>>> meas_value("CS(=O)(=O)N1CCc2c(c(-c3ccc(C(F)(F)F)c(CNC(=O)c4ccc(F)cc4)c3)nn2CCCN2CCC3(CCNC3=O)CC2)C1")
40

a = CS(=O)(=O)N1CCc2c(c(-c3ccc(C(F)(F)F)c(CNS(=O)(=O)c4ccc(F)cc4)c3)nn2CC(O)CN2CCCC2)C1 (centres unmarked)
b = CC(C)CC(=O)NCc1cc(-c2nn(CC(O)CN3CCC(C(C)(C)C)CC3)c3c2CN(S(C)(=O)=O)CC3)ccc1C(F)(F)F (centres unmarked)
Hi! Which is lower in terms of IC50, the first one a or the second one b ? // caller expects the label of the chosen entry
b
(b: 90 nM, a: 4900 nM)

* * *

measured.on: Recombinant human cathepsin S (CatS) (Homo sapiens, UniProt P25774)
Construct: made in house
method: Recombinant human cathepsin S (CatS) fluorogenic substrate inhibition assay
Type: biochemical
condition.summary: average of results obtained; substrate Z-Valine-Valine-Arginine-AMC 10 μM, pH 5.0; read-out: CatS IC50
pIC50: −log10 of the molar value.
outcome.measure: pIC50

// known answers, use as guide
>>> meas_value("CS(=O)(=O)N1CCc2c(c(-c3ccc(Cl)c(COCc4ccc(F)cc4)c3)nn2CCCN2CCCC2)C1")
5.84
>>> meas_value("CC(C)(C)OC(=O)NC1CCN(CC(O)Cn2nc(-c3ccc(C(F)(F)F)c(CNC(=O)c4ccc(F)cc4)c3)c3c2CCN(S(C)(=O)=O)C3)CC1 (stereo not shown)")
7.52
>>> meas_value("CS(=O)(=O)N1CCc2c(c(-c3ccc(C(F)(F)F)c(CNc4nc5ccccc5o4)c3)nn2CC(O)CN2CCCC2)C1 (stereo not shown)")
6.12
>>> meas_value("Cc1nc2ccccc2c(=O)n1Cc1cc(-c2nn(CCCN3CCC4(CCNC4=O)CC3)c3c2CN(S(C)(=O)=O)CC3)ccc1C(F)(F)F")
4.87
>>> meas_value("CS(=O)(=O)N1CCc2c(c(-c3ccc(C(F)(F)F)c(CNC(=O)c4ccc(N)cc4)c3)nn2CC(O)CN2CCCC2)C1 (stereo not shown)")
6.36

a = CS(=O)(=O)N1CCc2c(c(-c3ccc(C(F)(F)F)c(CNC(=O)c4ccc(F)cc4)c3)nn2CC(O)CN2CCCCC2)C1 (stereo not shown)
b = CS(=O)(=O)N1CCc2c(c(-c3ccc(C(F)(F)F)c(CNC(=O)c4ccc(F)cc4F)c3)nn2CC(O)CN2CCCC2)C1 (stereo not shown)
Just curious, which one has the larger pIC50 reading, a or b ? // caller expects the label of the chosen entry
a
(a: 6.60, b: 6.36)

A = CS(=O)(=O)N1CCc2c(c(-c3ccc(Cl)c(CNC(=O)c4ccc(F)cc4)c3)nn2CCCN2CCCC2)C1
B = CS(=O)(=O)N1CCc2c(c(-c3ccc(C(F)(F)F)c(CNC(=O)c4ccc(F)cc4)c3)nn2CC(O)CN2CNC(=O)C2)C1 (stereo not shown)
C = CS(=O)(=O)N1CCc2c(c(-c3ccc(Cl)c(CNC(=O)c4ccc(Cl)c(Cl)c4)c3)nn2CCCN2CCCC2)C1
Hey, quick one: sort these by pIC50, low to high? Returns: the labels arranged in the requested order.
C, B, A
(C: 5.99, B: 6.22, A: 6.55)

* * *

measured.on: Recombinant human cathepsin S (CatS) (Homo sapiens)
Construct: made in house
method: Recombinant human cathepsin S (CatS) fluorogenic substrate inhibition assay
Format: biochemical
condition.summary: average of results obtained; substrate Z-Valine-Valine-Arginine-AMC 10 μM, pH 5.0; read-out: CatS IC50
outcome.measure: IC50 (nM)

// known answers, use as guide
>>> meas_value("CS(=O)(=O)N1CCc2c(c(-c3ccc(C(F)(F)F)c(CNC(=O)c4ccc5ccccc5c4)c3)nn2CC(O)CN2CCCC2)C1 (stereo not drawn) [Example 64]")
370
>>> meas_value("CC(C)(C)OC(=O)NC1CCN(CC(O)Cn2nc(-c3ccc(Cl)c(CNC(=O)c4ccc(F)cc4)c3)c3c2CCN(S(C)(=O)=O)C3)CC1 (stereo not drawn) [Example 78]")
30
>>> meas_value("CS(=O)(=O)N1CCc2c(c(-c3ccc(Cl)c(CCC(=O)Nc4ccc(F)cc4)c3)nn2CCCN2CCOCC2)C1 [Example 293]")
3000
>>> meas_value("CC(C)=CC(=O)NCc1cc(-c2nn(CC(O)CN3CCC(C)(C)CC3)c3c2CN(S(C)(=O)=O)CC3)ccc1C(F)(F)F (stereo not drawn) [Example 28]")
60

1 = CS(=O)(=O)N1CCc2c(c(-c3ccc(C(F)(F)F)c(CNC(=O)c4ccc(F)cc4)c3)nn2CC(O)CN2CCC(C(=O)O)CC2)C1 (stereo not drawn) [Example 90]
2 = CS(=O)(=O)N1CCc2c(c(-c3ccc(C(F)(F)F)c(CNC(=O)c4ccc(Cl)cc4)c3)nn2CC(O)CN2CCCC2)C1 (stereo not drawn) [Example 224]
Hi! Which is lower in terms of IC50, the first one 1 or the second one 2 ? // caller expects the label of the chosen entry
1

* * *

measured.on: Recombinant human cathepsin S (CatS) (Homo sapiens)
Construct: made in house
method: Recombinant human cathepsin S (CatS) fluorogenic substrate inhibition assay
Format: biochemical
condition.summary: average of results obtained; substrate Z-Valine-Valine-Arginine-AMC 10 μM, pH 5.0; read-out: CatS IC50
pIC50: −log10 of the molar value.
outcome.measure: pIC50

// known answers, use as guide
>>> meas_value("CC(C)=CC(=O)NCc1cc(-c2nn(CC(O)CN3CCC(N(C)C)C3)c3c2CN(S(C)(=O)=O)CC3)ccc1C(F)(F)F (centres unmarked)")
6.34
>>> meas_value("CS(=O)(=O)N1CCc2c(c(-c3ccc(C(F)(F)F)c(CNC(=O)c4ccc(F)cc4)c3)nn2CC(O)CN2CCC(CO)CC2)C1 (centres unmarked)")
7.05
>>> meas_value("NC(=O)N1CCc2c(c(-c3ccc(C(F)(F)F)c(CNC(=O)c4ccc(F)cc4)c3)nn2CC(O)CN2CCC3(CCNC3=O)CC2)C1 (centres unmarked)")
7.40
>>> meas_value("CS(=O)(=O)N1CCc2c(c(-c3ccc(Cl)c(CNC(=O)c4ccc(F)cc4)c3)nn2CC(O)CN2CCC(N)CC2)C1 (centres unmarked)")
6.57
>>> meas_value("CC(=O)Nc1ccc(C(=O)NCc2cc(-c3nn(CC(O)CN4CCCC4)c4c3CN(S(C)(=O)=O)CC4)ccc2C(F)(F)F)cc1 (centres unmarked)")
6.01
>>> meas_value("CS(=O)(=O)N1CCc2c(c(-c3ccc(Cl)c(CNC(=O)c4ccc(F)cc4)c3)nn2CC(O)CN2CCC(F)CC2)C1 (centres unmarked)")
6.72

1 = CS(=O)(=O)N1CCc2c(c(-c3ccc(C(F)(F)F)c(CNC(=O)c4ccc(F)cc4)c3)nn2CC(O)CN2CCCC2)C1 (centres unmarked)
2 = CS(=O)(=O)N1CCc2c(c(-c3ccc(C(F)(F)F)c(CNS(=O)(=O)Cc4ccccc4)c3)nn2CCCN2CCC3(CCNC3=O)CC2)C1
Hi! Which is lower in terms of pIC50, the first one 1 or the second one 2 ? // caller expects the label of the chosen entry
2
(2: 5.66, 1: 6.80)

P = CS(=O)(=O)N1CCc2c(c(-c3ccc(C(F)(F)F)c(CNC(=O)c4ccc(F)cc4)c3)nn2CC(O)CN2CCNCC2)C1 (centres unmarked)
Q = CS(=O)(=O)N1CCc2c(c(-c3ccc(C(F)(F)F)c(CNC(=O)c4ccc(F)cc4)c3)nn2CC(O)CN2CCNC(=O)C2)C1 (centres unmarked)
Just curious, which one has the larger pIC50 reading, P or Q ? // caller expects the label of the chosen entry
Q
(Q: 6.48, P: 6.05)

I = CS(=O)(=O)N1CCc2c(c(-c3ccc(C(F)(F)F)c(CNC(=O)c4ccc(F)cc4)c3)nn2CC(O)CN2CCC[C@H]2C(N)=O)C1 (some centres unmarked)
II = CS(=O)(=O)N1CCc2c(c(-c3ccc(C(F)(F)F)c(CNC(=O)c4ccccc4)c3)nn2CCCN2CCC3(CCNC3=O)CC2)C1
Hi! Which is lower in terms of pIC50, the first one I or the second one II ? // caller expects the label of the chosen entry
I
